Where do these numbers come from? They come from patent US20260069725A1.

The compounds listed here are annotated with their Exposure in Kidney.
- Tested on: LNCaP tumor bearing mice
- Experimental Protocol: SPECT/CT scanning, exposure of 177Lu labeled compounds in tumor and tissues
- Type: in vivo
- Test Context: labeled with 177Lu; about 7.4 MBq (200 μCi) tail vein; scans 1-72 h

>  <Compound>
COc1ccc(C(=O)NCCN2CCN(C(=O)CCC(=O)N[C@@H](CCCCNC(=O)CN3CCN(CC(=O)O)CCN(CC(=O)O)CCN(CC(=O)O)CC3)C(=O)N3CCc4cc(C(=O)N[C@@H](Cc5ccc6ccccc6c5)C(=O)NCCCC[C@H](NC(=O)N[C@@H](CCC(=O)O)C(=O)O)C(=O)O)ccc4C3)CC2)cc1 [PSMA-L]

>  <Exposure in Kidney / h*ID %/g>
148.8

$$$$
>  <Compound>
COc1ccc(CCCC(=O)NC(CCCCN)C(=O)N[C@@H](CCCCNC(=O)CN2CCN(CC(=O)O)CCN(CC(=O)O)CCN(CC(=O)O)CC2)C(=O)NCC2CCC(C(=O)N[C@@H](Cc3ccc4ccccc4c3)C(=O)NCCCC[C@H](NC(=O)N[C@@H](CCC(=O)O)C(=O)O)C(=O)O)CC2)cc1 (stereo partly drawn) [PSMA-C]

>  <Exposure in Kidney / h*ID %/g>
178.7

$$$$
>  <Compound>
COc1ccc(C(=O)N[C@@H](CCCCNC(=O)CN2CCN(CC(=O)O)CCN(CC(=O)O)CCN(CC(=O)O)CC2)C(=O)NCC2CCC(C(=O)N[C@@H](Cc3ccc4ccccc4c3)C(=O)NCCCC[C@H](NC(=O)N[C@@H](CCC(=O)O)C(=O)O)C(=O)O)CC2)cc1 (stereo partly drawn) [PSMA-I]

>  <Exposure in Kidney / h*ID %/g>
776.8

$$$$

###

- System: LNCaP tumor bearing mice
- Experimental Protocol: SPECT/CT scanning, exposure of 177Lu labeled compounds in tumor and tissues
- Type: in vivo
- Test Context: labeled with 177Lu; about 7.4 MBq (200 μCi) tail vein; scans 1-72 h

>  <Molecule>
COc1ccc(CCCC(=O)NC(CCC(N)=O)C(=O)N[C@@H](CCCCNC(=O)CN2CCN(CC(=O)O)CCN(CC(=O)O)CCN(CC(=O)O)CC2)C(=O)NCC2CCC(C(=O)N[C@@H](Cc3ccc4ccccc4c3)C(=O)NCCCC[C@H](NC(=O)N[C@@H](CCC(=O)O)C(=O)O)C(=O)O)CC2)cc1 (stereo partly shown)

>  <Measure Unit>
h*ID %/g

>  <Exposure in Lung>
14.87

$$$$
>  <Molecule>
COc1ccc(C(=O)NCCN2CCN(C(=O)CCC(=O)N[C@@H](CCCCNC(=O)CN3CCN(CC(=O)O)CCN(CC(=O)O)CCN(CC(=O)O)CC3)C(=O)N3CCc4cc(C(=O)N[C@@H](Cc5ccc6ccccc6c5)C(=O)NCCCC[C@H](NC(=O)N[C@@H](CCC(=O)O)C(=O)O)C(=O)O)ccc4C3)CC2)cc1

>  <Measure Unit>
h*ID %/g

>  <Exposure in Lung>
51.83

$$$$
>  <Molecule>
O=C(O)CC[C@H](NC(=O)N[C@@H](CCCCNC(=O)[C@H](Cc1ccc2ccccc2c1)NC(=O)[C@H]1CC[C@H](CNC(=O)CN2CCN(CC(=O)O)CCN(CC(=O)O)CCN(CC(=O)O)CC2)CC1)C(=O)O)C(=O)O [PSMA-617, reference compound]

>  <Measure Unit>
h*ID %/g

>  <Exposure in Lung>
40.93

$$$$
>  <Molecule>
O=C(O)CCCCCCCCCCC(=O)N[C@@H](CCCCNC(=O)CN1CCN(CC(=O)O)CCN(CC(=O)O)CCN(CC(=O)O)CC1)C(=O)NCC1CCC(C(=O)N[C@@H](Cc2ccc3ccccc3c2)C(=O)NCCCC[C@H](NC(=O)N[C@@H](CCC(=O)O)C(=O)O)C(=O)O)CC1 (stereo partly shown)

>  <Measure Unit>
h*ID %/g

>  <Exposure in Lung>
56.76

$$$$
>  <Molecule>
COc1ccc(CCCC(=O)NC(CCCCN)C(=O)N[C@@H](CCCCNC(=O)CN2CCN(CC(=O)O)CCN(CC(=O)O)CCN(CC(=O)O)CC2)C(=O)NCC2CCC(C(=O)N[C@@H](Cc3ccc4ccccc4c3)C(=O)NCCCC[C@H](NC(=O)N[C@@H](CCC(=O)O)C(=O)O)C(=O)O)CC2)cc1 (stereo partly shown)

>  <Measure Unit>
h*ID %/g

>  <Exposure in Lung>
31.55

$$$$
>  <Molecule>
COc1ccc(CCCC(=O)NC(Cc2c[nH]cn2)C(=O)N[C@@H](CCCCNC(=O)CN2CCN(CC(=O)O)CCN(CC(=O)O)CCN(CC(=O)O)CC2)C(=O)NCC2CCC(C(=O)N[C@@H](Cc3ccc4ccccc4c3)C(=O)NCCCC[C@H](NC(=O)N[C@@H](CCC(=O)O)C(=O)O)C(=O)O)CC2)cc1 (stereo partly shown)

>  <Measure Unit>
h*ID %/g

>  <Exposure in Lung>
50.04

$$$$
>  <Molecule>
COc1ccc(C(=O)N[C@@H](CCCCNC(=O)CN2CCN(CC(=O)O)CCN(CC(=O)O)CCN(CC(=O)O)CC2)C(=O)NCC2CCC(C(=O)N[C@@H](Cc3ccc4ccccc4c3)C(=O)NCCCC[C@H](NC(=O)N[C@@H](CCC(=O)O)C(=O)O)C(=O)O)CC2)cc1 (stereo partly shown)

>  <Measure Unit>
h*ID %/g

>  <Exposure in Lung>
31.12

$$$$
